Cited source for all entries: PubChem BioAssay (Tox21)

# measurementProtocol: qHTS assay to identify small molecule that activate the aryl hydrocarbon receptor (AhR) signaling pathway - cell viability counter screen (AID 743086);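 further: HepG2 liver cells carrying the AhR DRE luciferase reporter; nearly all actives have a fitted effect of over 45% in size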
# statedConditions: HepG2-AhR-luc viability, CellTiter-Fluor, 24 h; series mostly up to 70.3 µM
Records with an inconclusive call do not appear. Active and inactive are the calls of the source. The call rests on the fitted dose curve; in most records, active means well fitted cell-killing curve with a large enough effect in the repeat runs; inconclusive means weak or mixed curves, or effect the other way; inactive means flat fitted curve, though single readings scatter.
recordedMetric: outcome

O=[N+]([O-])c1ccccc1-c1ccccc1 ... inactive
Nc1c(Cl)c(Cl)c(Cl)c(Cl)c1Cl ... inactive
CC1CN1 (stereo not drawn) ... inactive

----------
# measurementProtocol: qHTS assay to identify small molecule agonists of H2AX (AID 1224845); further: potency means the concentration at half of the fitted maximal effect
# statedConditions: CHO-K1 phospho-H2AX Ser139 HTRF, 3 h; series mostly up to 154 µM
Inconclusive results are not listed. Active and inactive are the calls of the source. The call rests on the fitted dose curve; in most records, active means well fitted activation curve with a large enough effect in the signal ratio in the repeat runs (not every such curve was filed as active); inconclusive means weak or mixed curves; inactive means flat fitted curve, though single readings scatter; the % refers to the signal ratio.
recordedMetric: Potency

CNN ... inactive
COC(=O)/C=C(\C)OP(=O)(OC)OC ... inactive
CC#C[C@]1(O)CC[C@H]2[C@@H]3C[C@H](C)C4=CC(=O)CC[C@]4(C)[C@H]3CC[C@@]21C ... 7.8 µM (active)
N#Cc1ccc(N(CC(N)=O)CC(F)(F)F)cc1C(F)(F)F ... inactive
Cc1ccc([N+](=O)[O-])[c]2c1[O][Hg]2 ... 0.695 µM (active)
CCC1(CC)C(=O)N=C(O)NC1=O ... inactive
O=S(=O)(O)F ... inactive
CC(=O)[O-].CC(=O)[O-].[Co+2] ... inactive
ClCBr ... inactive
CC(Cc1ccc(OCC(=O)O)cc1)NCC(O)c1csc(C(F)(F)F)n1 (centres undefined) ... inactive
N#CCCl ... inactive
NC1CCC(CC2CCC(N)CC2)CC1 (centres undefined) ... inactive
O=[N+]([O-])c1ccccc1-c1ccccc1 ... inactive
c1csc(-c2ccc(-c3cccs3)s2)c1 ... inactive
O=c1[nH]c2cc(Cl)ccc2n1C1CCNCC1 ... inactive
C[C@]12C/C(=C/O)C(=O)C[C@@H]1CC[C@@H]1[C@@H]2CC[C@@]2(C)[C@H]1CC[C@]2(C)O ... 90.6 µM (active)
CC[C@]1(O)CC[C@H]2[C@@H]3CCC4=CCCC[C@@H]4[C@H]3CC[C@@]21C ... inactive
CCN(CC)C(=O)N[C@@H]1C=C2c3cccc4[nH]cc(c34)C[C@@H]2N(C)C1 ... inactive
Nc1c(Cl)c(Cl)c(Cl)c(Cl)c1Cl ... inactive
Nc1nc(N)nc(Cl)n1 ... inactive
CCC[CH2][Sn]([CH2]CCC)([CH2]CCC)[CH2]CCC ... 8 µM (active)
CCCN ... inactive
C#CC1(O)CCCCC1 ... inactive
CCOP(=O)(OCC)Oc1nc(Cl)c(Cl)cc1Cl ... inactive
